assay: Drug concentration at steady state in human at 5 to 80 mg, po QD after 24 hrs; type: ADME, organism-based; settings: in vivo, read-out: Css
readout-name: concentration at 24 h (nM)
Report as a plain number; the unit nM is understood.

For the compound `CCC(C)(C)C(=O)O[C@H]1C[C@@H](C)C=C2C=C[C@H](C)[C@H](CC[C@@H]3C[C@@H](O)CC(=O)O3)[C@H]21` , what concentration at 24 h is on record? 9

* * *

assay: AUC in human at 40 to 80 mg, po TID after 8 hrs; assay type: ADME, organism-based; settings: in vivo
readout-name: AUC at 8 h (µM·h)
Report as a plain number; the unit µM·h is understood.

For the compound CCOc1ccc(/C=C2\NCCc3cc(OCC)c(OCC)cc32)cc1OCC [DROTAVERINE] , what AUC at 8 h is on record? 8.18

meta.source: ChEMBL document CHEMBL4028801
